Where these numbers come from: paper PMC9253517

target: SARS-CoV-2 Wuhan-Hu-1 NTD (SARS-CoV-2, UniProt P0DTC2 14-307); assay: cell-based or functional assay
Property: neutralisation IC50, WT (293TAce2)

Example results:
{"Binder": "JN219 (antibody, V domains shown) VH: QLQLQESGPGLVKPSETLSLTCTVSGGSISSSSYYWGSYYWGWIRQPPGKGLEWIASIYYSGTTYYNPSLKSRVTISVDTSKNQFSLKLSSVTAADTAVYYCASRYCSGGSCSLDYWGQGTLVTVSS VL: QSALTQPRSLSGSPGQSVTISCTGTSSDVGSYNYVSWYQQHPGKAPKLMIYDVSKRPSGVPDRFSGSKSGNTASLTISGLQAEDEADYYCCSYAGSYTLWVFGGGTKLTVL", "Property": "neutralisation IC50, WT (293TAce2)", "Reported result": "> 1 µg/mL"}
{"Binder": "JN013 (antibody, V domains shown) VH: QLQLQESGPGLVKPSETLSLTCTVSGGSISSSSYYWGWIRQPPGKGLEWIGSIYYSGSTYYNPSLKSRVTISVDTSKKQFSLKLSSVTAADTAVYYCARTYYDYIWGSLLGDFWGQGTLVTVSS VL: QSALTQPRSVSGSPGQSVTISCTGTSSDVGGYNYVSWYQQHPGKAPKLMIYDVSKRPSGVPDRFSGSKSGNTASLTISGLQAEDEADYYCCSYAGSYWVFGGGTKLTVL", "Property": "neutralisation IC50, WT (293TAce2)", "Reported result": "> 1 µg/mL"}

API: the following record is the query input.
Dear colleague, I am looking for the recorded neutralisation IC50, WT (293TAce2) of the following binder: JN106 (antibody, V domains shown) VH: EVQLVESGGGLVQPGGSLRLSCAASGFTFSENWMSWVRQAPGKGLEWVGNIKQDASEKYFVDSVKGRFTISRDNAKNSLYLQMDSLRAEDTAVYFCARWGYSNSYYYIDCWGQGTLVTVSS VL: QAVVTQEPSFSVSPGGTVTFTCGLTSGSVSASNHPSWYQQTPGQAPRTLMYGTNIRSSGVPDRFSGSILGNKAALTITGAQADDECDYYCVLYIGDGVWVFGGGTKLTVL
> 1 µg/mL
